assay: yeast display, Sf9 membrane polyspecificity reagent, FACS + sequencing; frameworks hold sequencing errors

{"Sequence string": "QVQLVESGGGLVQAGGSLRLSCAASGRIFTAYTMGWYRQAPGKERELVAAISTSGTSTYYADSVKGRFTISRDNAKNTVYLQMHSLKPEDTAVYYCATDYYYYPHSQYDYWGQGTQVTVSS", "polyreactivity (PSR sort gate)": "low polyreactivity"}
{"Sequence string": "QVQLVETGGGLVQAGGSLRLSCAASGFTFTSYAMGWYRQAPGKERELVARITSSTGSTYYADSVKGRFTISRDNAKNTVDLQMNSMKPEDTAVYYCNARRQRNKSYNYWGQGTEVTVSS", "polyreactivity (PSR sort gate)": "high polyreactivity"}
{"Sequence string": "QVQLVESGGGLVQAGGSLRLSCAASGSIFWFNAMGWYRQAPGKEREFVASISRSGGTTYYADSVKGRFTISRDTAKNTVYLQMYSLKPEDTAVYYCNARAYGNGLGTGYFGKHRYDYWGQGTQVTVSS", "polyreactivity (PSR sort gate)": "low polyreactivity"}
{"Sequence string": "QVQLVESGGGVVQAGGSLRLSCAASGSHFISNAMGWYRQAPGKERELVAAITSSGGSTYYADSVKGRFTISRDNAKNTVYLQMNSLKPEVTAVYYCAARPGRNYYYWGQGTQVTVSS", "polyreactivity (PSR sort gate)": "high polyreactivity"}
{"Sequence string": "QVQLVESGGGLVQAGGSLRLSCAASGSTFPGNAMGWYRQAPGKERELVAAIDTSGGSTYYADSVKGRFTISRDNAKNTVYLQMNSLKAEDTAVYYCDADYLIEMDYWGQGTQVTVSS", "polyreactivity (PSR sort gate)": "low polyreactivity"}
{"Sequence string": "QVQLAESGGRLVQAGGRLRLSCAASGRTSTCYAMGWYRQPPGKERELVAAISYRGGSTYYADSVKGRFTISRDNAKNSVYLHLNSLKPEDTAVYYCAAKWYWRGDYWGQGTQVTVSS", "polyreactivity (PSR sort gate)": "high polyreactivity"}
{"Sequence string": "HVQLVESGGGLVQAGGSLRLSCAASGSTFAAYAMGWYRQAPGKERELVAAITKRGGTTYYADSVKGRVTISRDHAKNSVYLQMNSLKPEDTAVYYCAKTRYYSALLHYDYDTWGQGTQVTVST", "polyreactivity (PSR sort gate)": "high polyreactivity"}
{"Sequence string": "QVQLVESGGGLVQAGGSLRLSCAASGGTFGYNVMGWYRQAPGKERELVAAISYSVGGTYYADSVKGRFTISRDNAKNTVYLQMNSLKPEDTEVYYCAATGRRRTYSEYEYWGQGTQVTVSS", "polyreactivity (PSR sort gate)": "high polyreactivity"}
{"Sequence string": "QFQHVESVGGLVQAGGSLRLSCAASGRIFPYYALGWYREAPGKERELVAAISQSDGSTYYADSVKGRFTISRDNAKNTVYLQMNSLKPEDTAVYYCAKRQASYTQHRKVRGDYWGQGPQVTVSS", "polyreactivity (PSR sort gate)": "low polyreactivity"}
{"Sequence string": "QVQLVESGGGLVQAGGSLRLSGAASGSTFTEYAMGWYRQAPGKEREFVAAITESGASTYYADSVKGRFTISRDNAKNTVYLQRNSLKPEDTAVYYCNAGYWRFIDSYDYWGQGTQVTVSS", "polyreactivity (PSR sort gate)": "high polyreactivity"}
{"Sequence string": "QVQLVESGGGLVQAGGSLRLICAASGRYYAMGWYRQAPGKERELVAAISSGGSTNYADSVKGRFTISRDNAKNTVYLQMNSLKPEDTAVYYCAALIRQLRYYLYYYWGQGTQVTVSS", "polyreactivity (PSR sort gate)": "high polyreactivity"}
